assay: Percent increase in force of contraction in vitro determined using electrically driven guinea pig left atrium.; type: functional; conditions: Cavia porcellus, Cardiac atrium
QUANTITY_KIND: Emax (%)
One number for each entry, in %.

CC(/C=N/OCCCN)=C\[C@H]1CC[C@]2(O)[C@@H]3CC[C@@H]4C[C@@H](O)CC[C@]4(C)[C@H]3CC[C@]12C.O=C(O)C(=O)O	90
CN(C)CCO/N=C\CC[C@H]1CC[C@]2(O)[C@@H]3CC[C@@H]4C[C@@H](O)CC[C@]4(C)[C@H]3CC[C@]12C.O=C(O)C(=O)O	150

Look at each compound and report its Emax.
1. C[C@]12CC[C@H](O)C[C@H]1CC[C@@H]1[C@@H]2CC[C@]2(C)[C@@H](/C=C/C=O)CC[C@]12O
2. C[C@]12CC[C@H](O)C[C@H]1CC[C@@H]1[C@@H]2CC[C@]2(C)[C@@H](/C=C/C=C/CCCN)CC[C@]12O
3. CN(C)CCCCO/N=C/[C@H]1CC[C@]2(O)[C@@H]3CC[C@@H]4C[C@@H](O)CC[C@]4(C)[C@H]3CC[C@]12C
4. CN(C)CCCO/N=C/[C@H]1CC[C@]2(O)[C@@H]3CC[C@@H]4C[C@@H](O)CC[C@]4(C)[C@H]3CC[C@]12C

Result:
1. 45
2. 73
3. 214
4. 235

----------
molecular target: Sodium/potassium-transporting ATPase subunit alpha-1 (Canis lupus familiaris); assay: In vitro inhibitory concentration against dog kidney Na+,K+-ATPase
Kindly supply the reported pIC50 values for the records listed here.
One number for each entry, as −log10 of the molar value.

CN(C)CCO/N=C/C=C/C=C/[C@H]1CC[C@]2(O)[C@@H]3CC[C@@H]4C[C@@H](O)CC[C@]4(C)[C@H]3CC[C@]12C.O=C(O)C(=O)O	5.20
C[C@]12CC[C@H](O)C[C@H]1CC[C@@H]1[C@@H]2CC[C@]2(C)[C@@H](CCC=O)CC[C@]12O	4.40
C[C@]12CC[C@H](O)C[C@H]1CC[C@@H]1[C@@H]2CC[C@]2(C)[C@@H](CCCCCCCN)CC[C@]12O	5.90
C[C@]12CC[C@H](O)C[C@H]1CC[C@@H]1[C@@H]2CC[C@]2(C)[C@@H](/C=C/C=C/CCCN)CC[C@]12O	6.49
C/C(C=O)=C\[C@H]1CC[C@]2(O)[C@@H]3CC[C@@H]4C[C@@H](O)CC[C@]4(C)[C@H]3CC[C@]12C	5.80

For each entry beneath this line, provide reported pIC50.
1. C[C@]12CC[C@H](O)C[C@H]1CC[C@@H]1[C@@H]2CC[C@]2(C)[C@@H](C=O)CC[C@]12O
2. C[C@]12CC[C@H](O)C[C@H]1CC[C@@H]1[C@@H]2CC[C@]2(C)[C@@H](/C=C/C=O)CC[C@]12O

Result:
4.60
6.60

----------
molecular target: Sodium/potassium-transporting ATPase; experiment: In vitro inhibitory concentration against dog kidney Na+/K+ ATPase
Would you mind telling me the reported log10 of IC50 of each entry?
Parameter value (number): base-10 log of IC50 in nM.

// below: answered compounds
C[C@]12CC[C@H](O)C[C@H]1CC[C@@H]1[C@@H]2CC[C@]2(C)[C@@H](CC/C=N\OCCN)CC[C@]12O	1.90
C[C@]12CC[C@H](O)C[C@H]1CC[C@@H]1[C@@H]2CC[C@]2(C)[C@@H](/C=N/OCCCCN)CC[C@]12O.O=C(O)C(=O)O	2.70
CN(C)CCO/N=C\CC[C@H]1CC[C@]2(O)[C@@H]3CC[C@@H]4C[C@@H](O)CC[C@]4(C)[C@H]3CC[C@]12C.O=C(O)C(=O)O	2.00

Consider the following items and state reported log10 of IC50 for each.
1. CC(/C=N/OCCO)=C\[C@H]1CC[C@]2(O)[C@@H]3CC[C@@H]4C[C@@H](O)CC[C@]4(C)[C@H]3CC[C@]12C
2. CN(C)CCO/N=C\C=C1/CC[C@]2(O)[C@@H]3CC[C@@H]4C[C@@H](O)CC[C@]4(C)[C@H]3CC[C@]12C
3. CN(C)CCO/N=C/[C@H]1CC[C@]2(O)[C@@H]3CC[C@@H]4C[C@@H](O)CC[C@]4(C)[C@H]3CC[C@]12C
4. CN(C)CCONC[C@H]1CC[C@]2(O)[C@@H]3CC[C@@H]4C[C@@H](O)CC[C@]4(C)[C@H]3CC[C@]12C.Cl.Cl
5. CONC/C=C/[C@H]1CC[C@]2(O)[C@@H]3CC[C@@H]4C[C@@H](O)CC[C@]4(C)[C@H]3CC[C@]12C
6. C[C@]12CC[C@H](O)C[C@H]1CC[C@@H]1[C@@H]2CC[C@]2(C)[C@@H](CCCNOCCN)CC[C@]12O
7. CO/N=C/C(C)=C/[C@H]1CC[C@]2(O)[C@@H]3CC[C@@H]4C[C@@H](O)CC[C@]4(C)[C@H]3CC[C@]12C

Result:
[3.90, 4.10, 3.00, 4.70, 4.60, 3.00, 4.00]

Record log10 of IC50 for all entries; do not skip any.
1. CN(C)CCCO/N=C/[C@H]1CC[C@]2(O)[C@@H]3CC[C@@H]4C[C@@H](O)CC[C@]4(C)[C@H]3CC[C@]12C
2. CN(C)CCO/N=C/C[C@H]1CC[C@]2(O)[C@@H]3CC[C@@H]4C[C@@H](O)CC[C@]4(C)[C@H]3CC[C@]12C
3. CONC[C@H]1CC[C@]2(O)[C@@H]3CC[C@@H]4C[C@@H](O)CC[C@]4(C)[C@H]3CC[C@]12C

Result:
1. 2.40
2. 2.80
3. 4.90

For each entry beneath this line, provide reported log10 of IC50.
1. C[C@]12CC[C@H](O)C[C@H]1CC[C@@H]1[C@@H]2CC[C@]2(C)/C(=C/C=N\OCCN)CC[C@]12O
2. CC(/C=N/OCCN(C)C)=C\[C@H]1CC[C@]2(O)[C@@H]3CC[C@@H]4C[C@@H](O)CC[C@]4(C)[C@H]3CC[C@]12C.O=C(O)/C=C/C(=O)O

Result:
[3.30, 1.78]

----------
I'd be grateful if you could share measured IC50 for these entries.
target: Sodium/potassium-transporting ATPase; experiment: In vitro inhibitory concentration against dog kidney Na+/K+ ATPase; assay type: protein-complex assay, Canis lupus familiaris
Answers are plain numbers, in µM.

Here's what some known entries look like.
C[C@]12CC[C@H](O)C[C@H]1CC[C@@H]1[C@@H]2CC[C@]2(C)[C@@H](CNOCCCN)CC[C@]12O	0.4
C[C@]12CC[C@H](O)C[C@H]1CC[C@@H]1[C@@H]2CC[C@]2(C)[C@@H](/C=C/C=N/OCCO)CC[C@]12O	6.3
CC(/C=N/OCCCN)=C\[C@H]1CC[C@]2(O)[C@@H]3CC[C@@H]4C[C@@H](O)CC[C@]4(C)[C@H]3CC[C@]12C.O=C(O)C(=O)O	0.2
CO/N=C/C=C/[C@H]1CC[C@]2(O)[C@@H]3CC[C@@H]4C[C@@H](O)CC[C@]4(C)[C@H]3CC[C@]12C	4

Turning to the following molecule.
Ask: Field request: IC50 | item: CO/N=C/[C@H]1CC[C@]2(O)[C@@H]3CC[C@@H]4C[C@@H](O)CC[C@]4(C)[C@H]3CC[C@]12C
Result: 32

----------
molecular target: Sodium/potassium-transporting ATPase; experiment: In vitro inhibitory concentration against dog kidney Na+/K+ ATPase
QUANTITY_KIND: pIC50
Numbers only, as −log10 of the molar value.

Observe how each entry below is paired with its result.
C[C@]12CC[C@H](O)C[C@H]1CC[C@@H]1[C@@H]2CC[C@]2(C)[C@@H](/C=N/OCCCN)CC[C@]12O.O=C(O)C(=O)O	7.70
CN(C)CCO/N=C/C=C/[C@H]1CC[C@]2(O)[C@@H]3CC[C@@H]4C[C@@H](O)CC[C@]4(C)[C@H]3CC[C@]12C.O=C(O)C(=O)O	7.52

Below: the item to evaluate.
Ask: If you can, please state the reported pIC50 value of CC(/C=N/OCCN)=C\[C@H]1CC[C@]2(O)[C@@H]3CC[C@@H]4C[C@@H](O)CC[C@]4(C)[C@H]3CC[C@]12C.O=C(O)/C=C/C(=O)O .
Result: 7.52

----------
experiment: Percent increase in force of contraction in vitro determined using electrically driven guinea pig left atrium.; format: functional; conditions: Cavia porcellus, Cardiac atrium
Can you tell me Emax for the items I'm about to list?
One number for each entry, in %.

Here's what some known entries look like.
C[C@]12CC[C@H](O)C[C@H]1CC[C@@H]1[C@@H]2CC[C@]2(C)[C@@H](/C=N/OCCN)CC[C@]12O	145
CN(C)CCONC[C@H]1CC[C@]2(O)[C@@H]3CC[C@@H]4C[C@@H](O)CC[C@]4(C)[C@H]3CC[C@]12C.Cl.Cl	18

Kindly consider the entry below.
Ask: Name the reported Emax value associated with the compound CC(/C=N/OCCO)=C\[C@H]1CC[C@]2(O)[C@@H]3CC[C@@H]4C[C@@H](O)CC[C@]4(C)[C@H]3CC[C@]12C
Result: 175
